- target-desc: T1, human IL-23 (human, UniProt P29460 23-328; Q9NPF7 20-189)
- T1 construct: Recombinant (Ebioscience); HIS-tagged in flow cytometry, biotinylated in some assays; also called hIL-23; rhIL-23
- T1 sequence 1: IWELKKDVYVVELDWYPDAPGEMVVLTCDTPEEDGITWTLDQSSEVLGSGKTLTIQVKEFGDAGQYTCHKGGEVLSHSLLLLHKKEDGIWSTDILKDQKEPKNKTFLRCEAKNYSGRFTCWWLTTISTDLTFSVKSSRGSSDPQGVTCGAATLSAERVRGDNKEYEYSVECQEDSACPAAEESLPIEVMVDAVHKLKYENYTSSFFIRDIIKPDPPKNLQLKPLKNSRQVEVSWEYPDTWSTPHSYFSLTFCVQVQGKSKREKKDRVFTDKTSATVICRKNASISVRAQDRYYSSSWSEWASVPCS
- T1 sequence 2: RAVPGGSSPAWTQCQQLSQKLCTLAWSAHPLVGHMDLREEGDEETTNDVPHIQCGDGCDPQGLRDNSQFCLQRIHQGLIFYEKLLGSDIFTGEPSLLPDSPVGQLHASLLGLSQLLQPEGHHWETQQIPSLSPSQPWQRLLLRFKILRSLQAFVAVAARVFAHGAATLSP
- assay-details: ELISA, coated IL-23
property-measured: binding result

binder	result
Antibody 71 (antibody, human IgG1, kappa, V domains shown) VH: EVQLVQSGAEVKKPGATVKISCKASGYTFSDYYLHWVRQAPGKGLEWMGWIDPENGDTEYAPKFQGRVTITADTSTDTGYLELSSLRSEDTAVYYCAANKELRYFDVWGQGTLVTVSS VL: DIQMTQSPSSVSASVGDRVTITCRASQSISINLHWYQQKPGKAPKLLIKFASQSISGVPSRFSGYGSGTDFSLTINSLQPEDFARYYCQQSNSFPLTFGGGTKVEIKR	binds
Antibody 62 (antibody, human IgG1, kappa, V domains shown) VH: EVQLVQSGAEVKKPGATVKISCKASGYTFSDYYLHWVRQRPGKGLEWMGWIDPENGDTEYAPKFQGRVTITADTSTDTGYLELSSLRSEDTAVYYCAANKELRYFDVWGQGTLVTVSS VL: DIQMTQSPSSVSASVGDRVTITCRASQSISINLHWYQQKPGKAPKLLIYFASQSISGVPSRFSGYGSGTDFSLTINSLQPEDFATYYCQQSNSFPLTFGGGTKVEIKR	binds
Antibody 70 (antibody, human IgG1, kappa, V domains shown) VH: EVQLVQSGAEVKKPGATVKISCKASGYTFSDYYLHWVRQRPEKGLEWMGWIDPENGDTEYAPKFQGKVTITADTSTDTGYLELSSLRSEDTAVYYCAANKELRYFDVWGQGTLVTVSS VL: DIQMTQSPSSVSASVGDRVTITCRASQSISINLHWYQQKPGKAPKLLIYFASQSISGVPSRFSGSGSGTDFSLTINSLQPEDFARYYCQQSNSFPLTFGGGTKVEIKR	binds
